Literature survey of Ki (system: Carbonic anhydrase 4 (Homo sapiens, UniProt P22748)).
Sequence (P22748 whole entry): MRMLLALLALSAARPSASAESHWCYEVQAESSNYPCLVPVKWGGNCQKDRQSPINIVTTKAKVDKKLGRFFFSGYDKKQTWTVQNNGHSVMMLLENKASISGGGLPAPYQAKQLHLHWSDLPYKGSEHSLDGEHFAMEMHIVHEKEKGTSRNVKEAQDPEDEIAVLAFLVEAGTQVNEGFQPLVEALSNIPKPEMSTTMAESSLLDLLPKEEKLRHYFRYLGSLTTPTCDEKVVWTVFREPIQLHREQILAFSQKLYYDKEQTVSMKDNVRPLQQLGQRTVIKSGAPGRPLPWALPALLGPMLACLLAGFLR
Measured property: Ki (nM)

[
  {
    "Substance smiles": "NS(=O)(=O)c1ccc(CCN(Cc2ccc(F)cc2)C(=O)CN(CCC(=O)O)CCc2ccccc2)cc1",
    "Assay system": "Carbonic anhydrase 4 (Homo sapiens, UniProt P22748)",
    "Value": 419
  },
  {
    "Substance smiles": "Nc1ccc(S(=O)(=O)NCc2ccc(S(N)(=O)=O)cc2)cc1",
    "Assay system": "Carbonic anhydrase 4 (Homo sapiens, UniProt P22748)",
    "Value": 84
  }
]

P. Nc1ccc(S(N)(=O)=O)cc1F
Q. NCCCN(CCc1ccccc1)CC(=O)N(CCc1ccc(S(N)(=O)=O)cc1)Cc1ccc2ccccc2c1
// pick min by Ki: P , Q Kindly give the label for the entry you pick.
P

* * *

Literature survey of Ki (system: Carbonic anhydrase 4 (Homo sapiens, UniProt P22748)).
Measured property: Ki (nM)

Answered examples (3):
[
  {
    "Substance smiles": "NS(=O)(=O)c1ccc(CCNCc2ccco2)cc1",
    "Unit": "nM",
    "Ki": 1580
  },
  {
    "Substance smiles": "NS(=O)(=O)c1cc(S(N)(=O)=O)c(NC(=O)CN(CCN(CCN(CC(=O)O)CC(=O)Nc2cc(Cl)c(S(N)(=O)=O)cc2S(N)(=O)=O)CC(=O)O)CC(=O)O)cc1Cl",
    "Unit": "nM",
    "Ki": 41
  },
  {
    "Substance smiles": "NS(=O)(=O)c1ccc(CNC(=O)CN(CCN(CCN(CC(=O)O)CC(=O)O)CC(=O)O)CC(=O)O)cc1",
    "Unit": "nM",
    "Ki": 40
  }
]

P. CC(=O)OC[C@H]1O[C@@H]([Se]c2ccc(NC(=O)c3ccc(Cl)c(S(N)(=O)=O)c3)cc2)[C@H](OC(C)=O)[C@@H](OC(C)=O)[C@@H]1OC(C)=O
Q. COc1cc(/C=C/C(=O)OCCCCO[N+](=O)[O-])ccc1OC(=O)c1ccc(S(N)(=O)=O)cc1
R. NS(=O)(=O)c1ccc(C(=O)Nc2ccc([Se][C@@H]3O[C@H](CO)[C@H](O)[C@H](O)[C@H]3O)cc2)cc1
Descending sort on Ki required. In plain terms: list the labels in the order you were asked to.
P, R, Q

* * *

Literature survey of Ki (system: UniProtKB P22748).
Measured property: Ki (µM)

Answered examples (5):
[
  {
    "Substance smiles": "NS(=O)(=O)c1ccc(NC(=O)CN(CCN(CCN(CC(=O)O)CC(=O)O)CC(=O)O)CC(=O)O)cc1",
    "Unit": "µM",
    "Ki": 0.18
  },
  {
    "Substance smiles": "NS(=O)(=O)c1ccc2nc(NC(=O)CSC(=S)N3CCOCC3)sc2c1",
    "Unit": "µM",
    "Ki": 8.12
  },
  {
    "Substance smiles": "Nc1ccccc1S(N)(=O)=O",
    "Unit": "µM",
    "Ki": 1.31
  },
  {
    "Substance smiles": "COc1cc(/C=C/C(=O)CC(=O)/C=C/c2ccc(O)c(OC)c2)ccc1O",
    "Unit": "µM",
    "Ki": 4.97
  },
  {
    "Substance smiles": "NS(=O)(=O)c1ccc(NC(=O)/C(Cl)=N/Nc2ccccc2)cc1",
    "Unit": "µM",
    "Ki": 7.36
  }
]

a. O=C(O)C[C@H](O)C(=O)O
b. O=C(Cc1ccccc1Nc1c(Cl)cccc1Cl)NCCOc1ccc2ccc(=O)oc2c1
c. N#CCCN(CCc1ccccc1)CC(=O)N(CCc1ccc(S(N)(=O)=O)cc1)Cc1ccc2ccccc2c1
Descending sort on Ki required. In plain terms: list the labels in the order you were asked to.
a, c, b
(a: 53.7 µM, c: 3.81 µM, b: 0.0091 µM)

I. NS(=O)(=O)c1ccc(CCN(CCc2ccccc2)C(=O)CN(CCC(=O)O)CCc2ccccc2)cc1
II. CCN1CCN(C(=S)SCC(=O)Nc2ccc(S(N)(=O)=O)cc2)CC1
III. NS(=O)(=O)c1cc(S(N)(=O)=O)c(NC(=O)CN(CCN(CCN(CC(=O)O)CC(=O)O)CC(=O)O)CC(=O)O)c(Cl)c1Cl
Descending sort on Ki required. In plain terms: list the labels in the order you were asked to.
I, II, III
(I: 2.33 µM, II: 0.189 µM, III: 0.036 µM)

A. CCCOc1ccc2ccc(=O)oc2c1
B. NS(=O)(=O)c1cc(S(N)(=O)=O)c(NC(=O)CN(CCN(CCN(CC(=O)O)CC(=O)Nc2c(S(N)(=O)=O)cc(S(N)(=O)=O)c(Cl)c2Cl)CC(=O)O)CC(=O)O)c(Cl)c1Cl
// pick min by Ki: A , B Kindly give the label for the entry you pick.
B
(B: 0.025 µM, A: 24.6 µM)

* * *

Literature survey of Ki (system: Carbonic anhydrase 4 (Homo sapiens)).
Measured property: Ki (nM)

[
  {
    "Substance smiles": "CCCCCCN(CCCCCC)CC(=O)N(CCCN)CCc1ccc(S(N)(=O)=O)cc1",
    "Assay system": "Carbonic anhydrase 4 (Homo sapiens)",
    "Value": 914
  },
  {
    "Substance smiles": "NS(=O)(=O)c1ccc(CCNCc2ccc([N+](=O)[O-])cc2)cc1",
    "Assay system": "Carbonic anhydrase 4 (Homo sapiens)",
    "Value": 1690
  },
  {
    "Substance smiles": "COc1cc(C(=O)O)cc(OC)c1O",
    "Assay system": "Carbonic anhydrase 4 (Homo sapiens)",
    "Value": 10600
  },
  {
    "Substance smiles": "O=C1Nc2ccc(Br)cc2S(=O)(=O)N1",
    "Assay system": "Carbonic anhydrase 4 (Homo sapiens)",
    "Value": 1560
  },
  {
    "Substance smiles": "Cc1ccc(N2CCN(C(=S)SCC(=O)Nc3ccc(S(N)(=O)=O)cc3)CC2)cc1",
    "Assay system": "Carbonic anhydrase 4 (Homo sapiens)",
    "Value": 2310
  },
  {
    "Substance smiles": "O=C(O)c1cc2ccccc2oc1=O",
    "Assay system": "Carbonic anhydrase 4 (Homo sapiens)",
    "Value": 3800
  }
]

a. CC1(C)O[C@@H]2[C@@H](CO[C@@]3(CNS(N)(=O)=O)OC(C)(C)O[C@@H]23)O1
b. CCN1CCN(C(=S)SCC(=O)Nc2nc3ccc(S(N)(=O)=O)cc3s2)CC1
// pick min by Ki: a , b Kindly give the label for the entry you pick.
a

A. NS(=O)(=O)c1nc2ccc(OC(=O)CN(CCN(CCN(CC(=O)O)CC(=O)Oc3ccc4nc(S(N)(=O)=O)sc4c3)CC(=O)O)CC(=O)O)cc2s1
B. COc1ccc(N/N=C(\Cl)C(=O)Nc2ccc(S(N)(=O)=O)cc2)cc1
Quick check, higher Ki between A and B ? Kindly give the label for the entry you pick.
B

1. O=c1ccc2ccccc2o1
2. CCOC(=O)N1CCN(C(=S)SCC(=O)Nc2ccc(S(N)(=O)=O)cc2)CC1
// pick min by Ki: 1 , 2 Kindly give the label for the entry you pick.
2
(2: 779 nM, 1: 62200 nM)

* * *

Literature survey of Ki (system: UniProt P22748).
Measured property: Ki (nM)

Answered examples (3):
[
  {
    "Substance smiles": "Oc1c(O)c(Br)c(Cc2c(Br)c(O)c(O)c(Br)c2Br)c(Br)c1Br",
    "Assay system": "UniProt P22748",
    "Unit": "nM",
    "Ki": 28000
  },
  {
    "Substance smiles": "COc1cc(/C=C/C(=O)OCCCCO[N+](=O)[O-])ccc1OC(=O)CCc1ccc(S(N)(=O)=O)cc1",
    "Assay system": "UniProt P22748",
    "Unit": "nM",
    "Ki": 139
  },
  {
    "Substance smiles": "NS(=O)(=O)c1ccc(NC(=O)CN(CCN(CCN(CC(=O)O)CC(=O)O)CC(=O)O)CC(=O)O)c(I)c1",
    "Assay system": "UniProt P22748",
    "Unit": "nM",
    "Ki": 29
  }
]

A. N#CCCN(CCc1ccccc1)CC(=O)N(CCc1ccc(S(N)(=O)=O)cc1)Cc1ccco1
B. COc1ccc(N2CCN(C(=S)SCC(=O)Nc3ccc(S(N)(=O)=O)cc3)CC2)cc1
// pick min by Ki: A , B Kindly give the label for the entry you pick.
A

a. NCCCCCCN
b. O=C1Nc2ccc(C(=O)O)cc2S(=O)(=O)N1
Quick check, higher Ki between a and b ? Kindly give the label for the entry you pick.
a
(a: 450 nM, b: 76.1 nM)

* * *

Literature survey of Ki (system: Carbonic anhydrase 4 (Homo sapiens, UniProt P22748)).
Measured property: Ki (nM)

I. NCCNCCN
II. COC(=O)c1cc2cc(CO)ccc2oc1=O
III. CCCCCCN(CCCCCC)CCC(=O)N(CCc1ccccc1)CCc1ccc(S(N)(=O)=O)cc1
// ranking: key=Ki, reverse=True In plain terms: list the labels in the order you were asked to.
I, II, III

1. NS(=O)(=O)c1ccc(CCN(Cc2ccco2)C(=O)CN(CCC(=O)O)CCc2ccccc2)cc1
2. NCCNCCNCCN
Quick check, higher Ki between 1 and 2 ? Kindly give the label for the entry you pick.
2

A. NS(=O)(=O)c1ccc(NC(=O)CSC(=S)N2CCCCC2)cc1
B. Cc1cc(C)c2c(c1)S(=O)(=O)NC(=O)N2
Quick check, higher Ki between A and B ? Kindly give the label for the entry you pick.
B
(B: 1640 nM, A: 406 nM)

A. NS(=O)(=O)c1ccc(CCNC(=O)CN2C(=O)NC3(CCCCCC3)C2=O)cc1
B. NS(=O)(=O)c1nnc(NC(=O)CCNC(=O)CN(CCN(CCN(CC(=O)O)CC(=O)O)CC(=O)O)CC(=O)O)s1
Quick check, higher Ki between A and B ? Kindly give the label for the entry you pick.
A
